# Tested on: Escherichia coli TOP10
# Assay: shrunken log2 fold change of peptide-encoding DNA abundance (4.5 h post-induction vs induction); higher = less antimicrobial activity (less host growth inhibition)
# Cond: time post-induction: 4.5 h; library: site-saturation at positions 5, 18, 19, 20
Measurement name: shrunken log2 fold change
// no unit string in output, number only

These recorded examples may help you get a feel for the data.
[[record]]
entry_sequence = "RRIRKRPPRLPRPRPRPLPEPRP"
value = 0.351

[[record]]
entry_sequence = "RRIRQRPPRLPRPRPRPPCDPRP"
value = -0.0587

[[record]]
entry_sequence = "RRIRLRPPRLPRPRPRPVWFPRP"
value = 0.00279

[[record]]
entry_sequence = "RRIRQRPPRLPRPRPRPQQVPRP"
value = -0.0545


Req: What shrunken log2 fold change appears in the records for this sequence with Escherichia coli TOP10? RRIRFRPPRLPRPRPRPFYQPRP
Resp: -0.537

Req: Look up shrunken log2 fold change with Escherichia coli TOP10 for this sequence: RRIRQRPPRLPRPRPRPLKCPRP
Resp: -0.139

Req: Form: Entry = RRIRCRPPRLPRPRPRPFYFPRP | System = Escherichia coli TOP10 | shrunken log2 fold change = ____
Resp: -0.593

Req: Recorded shrunken log2 fold change for RRIRQRPPRLPRPRPRPHCTPRP with Escherichia coli TOP10, please?
Resp: 0.157

====

# Tested on: Escherichia coli TOP10;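 also: peptides expressed intracellularly from a pBAD plasmid library in pooled LB shake-flask culture, induced with 0.3% L-arabinose, DNA abundance read by NGS, three biological replicates, DESeq2 with apeglm shrinkage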
# Assay: shrunken log2 fold change of peptide-encoding DNA abundance (4.5 h post-induction vs induction); higher = less antimicrobial activity (less host growth inhibition)
# Cond: time post-induction: 4.5 h; library: site-saturation at positions 5, 18, 19, 20
Classes by shrunken log2 fold change: low interval: < -0.3; middle interval: ≥ -0.3 and < 0.05; high interval: ≥ 0.05

Example results:
[[record]]
entry_sequence = "RRIRSRPPRLPRPRPRPKFQPRP"
test_target = "Escherichia coli TOP10"
assigned_label = "high interval"

[[record]]
entry_sequence = "RRIRPRPPRLPRPRPRPYLTPRP"
test_target = "Escherichia coli TOP10"
assigned_label = "low interval"

[[record]]
entry_sequence = "RRIRSRPPRLPRPRPRPDTIPRP"
test_target = "Escherichia coli TOP10"
assigned_label = "low interval"

[[record]]
entry_sequence = "RRIRDRPPRLPRPRPRPSYSPRP"
test_target = "Escherichia coli TOP10"
assigned_label = "low interval"

[[record]]
entry_sequence = "RRIRKRPPRLPRPRPRPPPPPRP"
test_target = "Escherichia coli TOP10"
assigned_label = "high interval"


Req: Input RRIRFRPPRLPRPRPRPTMRPRP ; output its category
Resp: high interval

Req: Lab note: which band did RRIRGRPPRLPRPRPRPCVDPRP land in?
Resp: high interval

Req: Which class holds RRIRYRPPRLPRPRPRPMNFPRP ?
Resp: middle interval

Req: Class (by measured shrunken log2 fold change) for RRIRIRPPRLPRPRPRPCGFPRP
Resp: middle interval

Req: Sort into band: RRIRGRPPRLPRPRPRPWVMPRP
Resp: middle interval

Req: # bin lookup: classify RRIRWRPPRLPRPRPRPNTEPRP by its shrunken log2 fold change
Resp: low interval

Req: Returns: class label. Input: RRIRVRPPRLPRPRPRPNQPPRP
Resp: middle interval

Req: Textbook exercise: identify the category of the sequence given here, RRIRHRPPRLPRPRPRPLQVPRP , according to its measured value.
Resp: middle interval

Req: Kindly identify the class of RRIRFRPPRLPRPRPRPNLAPRP .
Resp: middle interval
